# assay_system: T1, MSLN.Fc protein (human, UniProt Q13421 296-598, limits assumed)
# T1 construct: also called MSLN·hFc; MSLN protein; not shown: human IgG Fc fragment
# T1 sequence (Q13421 other isoform, or with tags, fused parts or gaps limits assumed): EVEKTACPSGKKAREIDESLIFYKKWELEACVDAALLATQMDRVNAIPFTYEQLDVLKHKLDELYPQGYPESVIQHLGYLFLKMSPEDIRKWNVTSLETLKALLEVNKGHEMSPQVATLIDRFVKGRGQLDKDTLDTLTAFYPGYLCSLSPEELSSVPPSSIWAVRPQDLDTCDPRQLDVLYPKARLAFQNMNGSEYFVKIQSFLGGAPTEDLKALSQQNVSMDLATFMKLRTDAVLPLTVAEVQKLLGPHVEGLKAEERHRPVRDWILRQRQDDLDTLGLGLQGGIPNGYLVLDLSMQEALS
# protocol_summary: ELISA, antigen coated, TG1 supernatant; further: test concentration or dose not given here
observable: ELISA (OD450)
A number alone suffices; assume OD450.

Quick note, ELISA (OD450) for M143 (VHH, Nanoantibody in TG1 supernatant in the screening ELISA; also called clone M143) VHH: EVQLVESGGGLVQAGGSLRLSCSASEKTFSIKYMGYYRQGPGIERKLVATIDTDGKTWYADSVKGRFTISRENGENEIGLEMNRLKPEDTAMYYCAGETGTYPKPEYWGQGTQVTVSS landed at 1.62

So for M156 (VHH, Nanoantibody in TG1 supernatant in the screening ELISA; also called clone M156) VHH: QVQLVESGGGLVQAGGSLRLSCAVSGISFEYYAIGWFRQAPGKEREAVSCTTSGTTSGGGVTDYADSLKGRFTISRDVAKNTVYLQMNNLTPEDTAVYYCAADIHCRGYVLFVPSDFGNWGQGTQVTVSS , the logged ELISA (OD450) turned out to be 1.67

Record M003 (VHH, Nanoantibody in TG1 supernatant in the screening ELISA; also called clone M003) VHH: QVQLVESGGGLVQAGGSLRLSCTASGNIFSINAMGWYRQPPGKEWERELVATISSTNSDNTYYKESVKGRFTISTNTAKNTWYLQMNSLKPEDTAMYYCAAENFDRKDRYWAQGTQVTVSS . Reported ELISA (OD450): 2.38

// M197 (VHH, Nanoantibody in TG1 supernatant in the screening ELISA; also called clone M197) VHH: EVQLVESGGGLVQAGGSLRLSCAASGSHFGLNVVGWYRQAPGKQRELVASIGNSGRTTDYADSVKGRFTISKDNAQNTIYLQMNNLKPEDTAMYRCHLRVSVERGYWGQGTQVTVSS : ELISA (OD450) value = 1.21

Lab note: M119 (VHH, Nanoantibody in TG1 supernatant in the screening ELISA; also called clone M119) VHH: EVQLVESGGGLVQPGGSLRLSCVASGSDLSFDAMGWYRQFSATVRERQLVVATSRDGRIYYGDSVKGRFTASRDNLKNSVDLEMNNLKPEDTAIYYCAAGDDPKNYDWGPGTQVTVSS gave ELISA (OD450) of 2.49

Looking up M001 (VHH, Nanoantibody in TG1 supernatant in the screening ELISA; also called clone M001) VHH: EVQLVESGGGLVQAGGSLRLSCAASGSIFNINAMGWYRQAPGKEWERELVATISSSNSDNTYYKDSVKGRFTISTNTAKNTWYLQMNSLKPEDTAMYYCAAENYDRKDRYWGQGTQVTVSS , I found its ELISA (OD450) recorded as 1.72

Measured ELISA (OD450), M005 (VHH, Nanoantibody in TG1 supernatant in the screening ELISA; also called clone M005) VHH: EVQLVESGGGWVQSGGSLRLACAASGSSFGLNVVGWYRQAPDKQRELVASIGNGGRTTDYADSVKGRFTISSDNAKNTVFLQMNDLKPEDTAVYYCHLRASVTKGYWGQGTQVTVSS : 1.18

# ELISA (OD450) of M137 (VHH, Nanoantibody in TG1 supernatant in the screening ELISA; also called clone M137) VHH: QVQLVESGGGLVQAGGSLSLSCAASGSLSSINAMGWYRQLPEMRQLVATMGSDGKTYYADSVKGRFTISRDYAKYTVSLQMNNLRPEDTAIYYCAADRFGAPIHDVDYWGKGTLVTVSV = 1.27

Sample M126 (VHH, Nanoantibody in TG1 supernatant in the screening ELISA; also called clone M126) VHH: EVQLVESGGGWVQSGGSLRLACAASGDSFGLNVVGWYRLAPDKQRELVASIGNGGRTTDYADSVKGRFTISSDNAKNTVFLQMNDLKPEDTAMYYCHLRVSVTEGYWGQGTQVTVSS ; ELISA (OD450) observed: 1.95

Per the records, this binder ( M047 (VHH, Nanoantibody in TG1 supernatant in the screening ELISA; also called clone M047) VHH: QVQLVETGGGSVQAGGSLRLSCAASGSIASIDAMGWYRQVPGKEWERELVATISSSNSDNKYYKDSVKGRFTISTNIAKNTWYLQMNNLKPEDTAMYYCAAEDYDTKDRFWGQGTQVTVSS ) has ELISA (OD450) equal to 1.98

Form: binder = M210 (VHH, Nanoantibody in TG1 supernatant in the screening ELISA; also called clone M210) VHH: QVQLVESGGGLVQPGGSLRLSCAASGITLDNYAIAWFRQAPGKKREGVSCISSNGNTYYQPSVKGRFTIARDNAKNTVYLHMNNLNPEDTAVYYCQVGQFSSSTTPVQAMSVMSLYADWGQGTQVTVSS ; ELISA (OD450) = 1.95

The value of ELISA (OD450) measured for the binder M032 (VHH, Nanoantibody in TG1 supernatant in the screening ELISA; also called clone M032) VHH: EVQLVESGGGSVQAGGSLKISCAASGSVIDIGAMGWYRHITEKERKLVATINAGGNTYYADSVKGRFTISRDNAKYTVYLQMNSLKPEDTAMYYCAAEDINYTGTEAYYWGQGTQVTVSS turned out to be 1.41

M010 (VHH, Nanoantibody in TG1 supernatant in the screening ELISA; also called clone M010) VHH: QVQLVESGGGLVQAGGSLRLSCAASGSVSSINAMGWYRQGTGEVRKLVATMGSGGNTYYADSVKGRFFITRDYSKNTVSLQMNNLTPEDSATYYCAADRFGASIHEVDYWGKGTLVTVSS has a reported ELISA (OD450) of 2.75

Record summary for M191 (VHH, Nanoantibody in TG1 supernatant in the screening ELISA; also called clone M191) VHH: QVQLVESGGGLVQAGGSLRLSCAASASMGSISNMGWYRQAPGKERGNERNLVATIGSDGRTYYADSVKGRFTISRDNVKNTMILQMNFLKPEDTAMYYCAVEDRQRPGTENYYWGQGTQVTVSS : reported ELISA (OD450) = 1.69

According to the records, this binder M004 (VHH, Nanoantibody in TG1 supernatant in the screening ELISA; also called clone M004) VHH: EVQLVESGGGLVQAGGSLRLSCAASESISSIAYMGWYRRISEKERNLVATISSTGSTYYADSVKGRFTISRDNAKNTMYLQMNRLKPEDTAIYYCAASNKAYNDYDPDWGQGTQVTVSS displays ELISA (OD450) of 1.1
